test: PK parameters in mouse (IV and PO); type: in vivo; conditions: male, Swiss Albino, plasma, IV arm, 10 mg/kg, read-out: PK parameters (mouse): Cl
Readout: clearance (mL/min/kg)

N#Cc1cc(NC(=O)[C@H]2c3ccccc3C(=O)N(CC(F)(F)F)[C@@H]2c2ccc(C(F)F)nc2)ccc1F [(8a)] ... 3.33
N#Cc1cc(NC(=O)[C@H]2c3ccccc3C(=O)N(CC(F)(F)F)[C@@H]2c2ccc(OC(F)F)nc2)ccc1F [(7a)] ... 2.67
N#Cc1cc(NC(=O)[C@H]2c3ccccc3C(=O)N(CC(F)(F)F)[C@@H]2c2ccc(OC3CC3)nc2)ccc1F (single isomer, unassigned) [(1a)] ... 2.17
N#Cc1cc(NC(=O)[C@H]2c3ccccc3C(=O)N(CC(F)(F)F)[C@@H]2c2cnc(C(F)(F)F)nc2)ccc1F [(9a)] ... 3.17

a = N#Cc1cc(NC(=O)[C@H]2c3ccccc3C(=O)N(CC(F)(F)F)[C@@H]2c2ccc(OCC(F)(F)F)nc2)ccc1F [(4a)]
b = N#Cc1cc(NC(=O)[C@H]2c3ccccc3C(=O)N(CC(F)(F)F)[C@@H]2c2ccc(C(F)(F)F)nc2)ccc1F [(3a)]
c = N#Cc1cc(NC(=O)[C@H]2c3ccccc3C(=O)N(CC(F)(F)F)[C@@H]2c2cccnc2)ccc1F [(+) SJ-733, reference compound]
Exercise: Form: Sort by [clearance] Order [ ascending ] Provide the labels, sequenced as the question asks.
Key: b, a, c
